Values were extracted from paper PMC10825579.

Experimental target: Fab of trastuzumab (human)
Test description: SPR; Fab of trastuzumab amine-coupled to a CM5 chip (1,000 RU), VHH as analyte in a 1/2 dilution series; Biacore X100, HBS-EP (10 mM HEPES pH 7.4, 150 mM NaCl, 3 mM EDTA, 0.005% P20), 20°C, 10 µL/min, association 360 s, dissociation 800 s; 1:1 binding model
Assignment: determine reported pKd for the given binders.
The scale used: pKd is minus the common logarithm of the concentration in molar units.

QUERY: // Input: VHH clone Ig-S675 (cluster Ig-7) (VHH) VHH: QVQLVESGGGLVQAGGSLRLSCAATGFTFDDYVIGWFRQASGKEREGVSCIRSSDGDTYYADSVKGRFTVSSDNAKNTVYLQMNSLKPEDTAVYYCAEGPTVLDGCIVDSESYYFSWGQGTQVTVSS . Output its pKd only.
RESULT: 9.81

QUERY: // Input: VHH clone Ig-S8492 (cluster Ig-7) (VHH) VHH: QVQLVESGGGLVQAGGSLRLSCAASGFTFDDYVIGWFRQAPGKEREGVSCISSSDGRTDYADSVKGRFTISSDNAKNTVYLQMNSLKPEDTAVYYCAAGPTVLDGCIYYSGSYYFSWGQGTQVTVSS . Output its pKd only.
RESULT: 6.91

QUERY: // Input: VHH clone Ig-S6584 (cluster Ig-7) (VHH) VHH: QVQLVESGGGLVQAGGSLRLSCAASGFTFDDYIVGWFRQAPGKEREGVSCIRSSDGSTNYADSVKGRFTVSSDNAKNTVYLQMNSLKPEDTAVYYCAEGPTVLDGCIYDSESYYFSWGQGTQVTVSS . Output its pKd only.
RESULT: 8.22

QUERY: // Input: VHH clone Ig-S1139 (cluster Ig-7) (VHH) VHH: QVQLVESGGGLVQAGGSLRLSCAASGFTFDDYVIGWFRQAPGKEREGVSCISSSDGSTYYADSVKGRFTISSDNAKNTVYLQMNSLKPEDTAVYYCAEGPTVLDGCIVDSGSYYFSWGQGTQVTVSS . Output its pKd only.
RESULT: 6.63

QUERY: // Input: VHH clone Ig-S506 (cluster Ig-7) (VHH) VHH: QVQLVESGGGLVQAGGSLRLSCAASGFTFDDYVIGWFRQAPGKEREGVSCISSSDGSTNYADSVKGRFTISSDNAKNTVYLQMNSLKPEDTAVYYCAEGPTVLDGCIYDSGSYYFSWGQGTQVTVSS . Output its pKd only.
RESULT: 6.61
